Values compiled from patent US20190202925A1.

Documented % CD8^+ ab^+ Donor 1 across a set of binders
# TARGET UNDER TEST: T1, human TNFR2 on cells (human, UniProt P20333 23-461)
# T1 construct: whole, on cells; also called TNFR2 on Jurkat clone H6; human TNFR2 on CD4+ and CD8+ T cells
# T1 sequence (looked up): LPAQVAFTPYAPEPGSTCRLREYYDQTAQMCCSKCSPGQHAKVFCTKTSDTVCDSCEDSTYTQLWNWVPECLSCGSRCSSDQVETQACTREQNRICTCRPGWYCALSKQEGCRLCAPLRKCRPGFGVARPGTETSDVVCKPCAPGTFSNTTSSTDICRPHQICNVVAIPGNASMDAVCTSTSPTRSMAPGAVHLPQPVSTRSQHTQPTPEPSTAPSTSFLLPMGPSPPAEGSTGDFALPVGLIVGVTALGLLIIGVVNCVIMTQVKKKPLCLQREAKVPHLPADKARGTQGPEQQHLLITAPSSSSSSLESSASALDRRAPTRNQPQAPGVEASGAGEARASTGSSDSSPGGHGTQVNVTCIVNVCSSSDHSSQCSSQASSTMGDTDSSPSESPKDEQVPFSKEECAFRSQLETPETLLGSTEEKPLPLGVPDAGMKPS
# ASSAY DETAILS: flow cytometry on human PBMC, antibody at 10 ug/mL, anti-human Fc-PE secondary
Provide the reading as a plain figure in %.

Study these solved cases before continuing.
BINDER	% CD8^+ ab^+ Donor 1, %
chimeric SBT-004 (antibody, V domains shown, VH fused to a human IgG1 Fc domain; also called chSBT-004) VH: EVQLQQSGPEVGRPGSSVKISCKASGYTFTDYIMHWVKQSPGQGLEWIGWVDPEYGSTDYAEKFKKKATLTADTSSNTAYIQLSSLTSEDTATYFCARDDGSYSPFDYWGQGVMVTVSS VL: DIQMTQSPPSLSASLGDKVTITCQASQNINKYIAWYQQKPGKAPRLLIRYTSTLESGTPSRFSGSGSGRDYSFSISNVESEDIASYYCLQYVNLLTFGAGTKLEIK	18.8
chimeric SBT-004b (antibody, human IgG1, V domains shown, Same heavy chain as chSBT-004 (human IgG1 Fc domain); also called chSBT-004b) VH: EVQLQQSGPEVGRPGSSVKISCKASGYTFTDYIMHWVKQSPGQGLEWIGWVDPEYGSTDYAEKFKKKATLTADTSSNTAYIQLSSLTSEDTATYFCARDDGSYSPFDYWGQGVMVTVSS VL: NIVMTQSPKSMSMSVGERVTLTCKASENVVTYVSWYQQKPEQSPKLLIYGASNRYTGVPDRFTGSGSATDFTLTISSVQAEDLADYHCGQGYSYPYTFGGGTKLEIK	9.1
chimeric SBT-002 (antibody, V domains shown, also called chSBT-002) VH: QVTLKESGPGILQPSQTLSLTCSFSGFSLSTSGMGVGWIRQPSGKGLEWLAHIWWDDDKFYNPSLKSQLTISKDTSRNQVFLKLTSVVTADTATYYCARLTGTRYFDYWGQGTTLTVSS VL: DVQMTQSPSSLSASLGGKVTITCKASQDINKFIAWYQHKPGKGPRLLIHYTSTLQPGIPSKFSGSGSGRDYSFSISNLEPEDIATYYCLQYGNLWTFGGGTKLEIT	24.3

Now consider a different binder.
Could you share which % CD8^+ ab^+ Donor 1 value was measured for chimeric SBT-003 (antibody, V domains shown, also called chSBT-003) VH: QIQLVQSGPELKKPGETVKISCKASGYTFTDYSMHWVKQAPGKGLKWMGWINTETGEPTYADDFKGRFAFSSETSTSTAYLQINNLKNDDTTTYFCATYYGSSYVPDYWGQGTSLTVSS VL: DIVMTQSHKFMSTSVGDRVSITCKASQNVGTAVAWYQHKPGQSPKLLIYWTSSRHTGVPDRFTGSGSGTEFTLTISNVQSEDLADYFCHQYSDYPYTFGGGTKLEIK ?
23.8
